Biological target: T1, APC9096-AA
T1 chain: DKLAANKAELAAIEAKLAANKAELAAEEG
Test: two-hybrid library CCmax;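 also: natural log of median RNA to DNA barcode read ratio; higher means stronger binding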
Details: mean of both orientations

| binder | interaction score |
| --- | --- |
| DELAANEAKLAANKAKLAAIKAELAAIEG [APC8910-AA] | -2.09 |
| DKNAALKAKAAALKAELAANEAKAAALKG [APC5383-AA] | -1.73 |
| DENAALEAENAALEAKAAALKAELAAEEG [APC4436-AA] | -1.96 |
| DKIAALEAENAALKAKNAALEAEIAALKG [4H2290-AA] | -1.24 |
| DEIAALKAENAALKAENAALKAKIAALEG [4H733-AA] | -1.46 |
| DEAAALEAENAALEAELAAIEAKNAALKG [APC2405-AA] | -1.39 |
| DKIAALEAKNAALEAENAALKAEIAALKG [4H2458-AA] | -1.34 |
| DENAALEAELAAIEAKLAAIKAKLAAIKG [APC4011-AA] | -1.88 |
| DENAALEAEAAALEAELAAEEAENAALEG [APC4264-AA] | -1.45 |
| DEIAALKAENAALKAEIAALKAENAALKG [4H716-AA] | -1.43 |
| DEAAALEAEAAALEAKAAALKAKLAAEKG [APC2237-AA] | -1.63 |
| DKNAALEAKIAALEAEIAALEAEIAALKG [4H3330-AA] | -1.65 |
| DKLAAEKAELAAIEAKLAANKAKLAANKG [APC7099-AA] | -1.55 |
| DKAAALKAELAAEEAENAALEAKNAALKG [APC3645-AA] | -1.71 |
| DELAAEEAKLAAIKAELAAIEAELAANEG [APC6108-AA] | -1.73 |
| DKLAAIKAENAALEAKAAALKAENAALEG [APC1434-AA] | -1.36 |
| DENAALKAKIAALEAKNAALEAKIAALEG [4H1845-AA] | -2.08 |
| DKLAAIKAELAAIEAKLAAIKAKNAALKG [APC1015-AA] | -1.67 |
| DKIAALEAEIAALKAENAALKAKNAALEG [4H2143-AA] | -1.82 |
| DELAANEAKLAAIKAKLAANKAKLAAIKG [APC8191-AA] | -1.76 |
